Consider the following molecules and their measured IC50 readings.
Test system: A-431
METHOD NOTES: Cell proliferation inhibition experiment, CellTiter-Glo (CTG) method
Format: cell-based
EXPERIMENTAL CONDITIONS: A-431 cells, 3 days
Experimental: Cell Proliferation Inhibition Experiment Compounds were tested in the selected cell lines, and solvent is set as control, nine concentrations were detected with three parallel wells for each concentration. 2. […] The first day: Incubation and plant of cells • 1) Cells in logarithmic growth phase were harvested and counted by cell counter. […]
Give the number; nM is assumed, so skip it.

| MOLECULE | TESTED SYSTEM | VALUE UNITS | IC50 |
| --- | --- | --- | --- |
| C=CC(=O)Nc1cc(Nc2cc(-c3ccc4c(cnn4C)c3)ncn2)c(OC)cc1N1CCC(N2CCOCC2)CC1 [compound 27] | A-431 | nM | 387 |
| C=CC(=O)Nc1cc(Nc2cc(-c3ccc4c(cnn4C)c3)ncn2)c(OC)cc1N1CCC(N2CCOCC2)CC1 [compound 152] | A-431 | nM | 1970 |

Continue with the next molecule.
molecule C=CC(=O)Nc1cc(Nc2cc(-c3ccc4c(cnn4C)c3)ncn2)c(OC)cc1N1CCC(N2CCOCC2)CC1 [compound 208] , IC50 observed: 1100

----------
Tested on: NCI-H1975
METHOD NOTES: Cell proliferation inhibition experiment, CellTiter-Glo (CTG) method
Format: cell-based
EXPERIMENTAL CONDITIONS: NCI-H1975 cells, CTG, 3 days
PROPERTY: IC50 (nM)
Give the number; nM is assumed, so skip it.

| MOLECULE | VALUE |
| --- | --- |
| C=CC(=O)Nc1cc(Nc2cc(-c3ccc4c(cnn4C)c3)ncn2)c(OC)cc1N1CCC(N2CCOCC2)CC1 [compound 27] | 14.2 |

molecule C=CC(=O)Nc1cc(Nc2cc(-c3ccc4c(cnn4C)c3)ncn2)c(OC)cc1N1CCC(N2CCOCC2)CC1 [compound 208] , IC50 observed: 20

----------
TESTED SYSTEM: P-gp (Homo sapiens, UniProt P08183)
Construct: expressed in transfected cells; host or cells: MDCKII-MDR1 (MDCKII canine kidney cells expressing MDR1)
Sequence (P08183 whole entry): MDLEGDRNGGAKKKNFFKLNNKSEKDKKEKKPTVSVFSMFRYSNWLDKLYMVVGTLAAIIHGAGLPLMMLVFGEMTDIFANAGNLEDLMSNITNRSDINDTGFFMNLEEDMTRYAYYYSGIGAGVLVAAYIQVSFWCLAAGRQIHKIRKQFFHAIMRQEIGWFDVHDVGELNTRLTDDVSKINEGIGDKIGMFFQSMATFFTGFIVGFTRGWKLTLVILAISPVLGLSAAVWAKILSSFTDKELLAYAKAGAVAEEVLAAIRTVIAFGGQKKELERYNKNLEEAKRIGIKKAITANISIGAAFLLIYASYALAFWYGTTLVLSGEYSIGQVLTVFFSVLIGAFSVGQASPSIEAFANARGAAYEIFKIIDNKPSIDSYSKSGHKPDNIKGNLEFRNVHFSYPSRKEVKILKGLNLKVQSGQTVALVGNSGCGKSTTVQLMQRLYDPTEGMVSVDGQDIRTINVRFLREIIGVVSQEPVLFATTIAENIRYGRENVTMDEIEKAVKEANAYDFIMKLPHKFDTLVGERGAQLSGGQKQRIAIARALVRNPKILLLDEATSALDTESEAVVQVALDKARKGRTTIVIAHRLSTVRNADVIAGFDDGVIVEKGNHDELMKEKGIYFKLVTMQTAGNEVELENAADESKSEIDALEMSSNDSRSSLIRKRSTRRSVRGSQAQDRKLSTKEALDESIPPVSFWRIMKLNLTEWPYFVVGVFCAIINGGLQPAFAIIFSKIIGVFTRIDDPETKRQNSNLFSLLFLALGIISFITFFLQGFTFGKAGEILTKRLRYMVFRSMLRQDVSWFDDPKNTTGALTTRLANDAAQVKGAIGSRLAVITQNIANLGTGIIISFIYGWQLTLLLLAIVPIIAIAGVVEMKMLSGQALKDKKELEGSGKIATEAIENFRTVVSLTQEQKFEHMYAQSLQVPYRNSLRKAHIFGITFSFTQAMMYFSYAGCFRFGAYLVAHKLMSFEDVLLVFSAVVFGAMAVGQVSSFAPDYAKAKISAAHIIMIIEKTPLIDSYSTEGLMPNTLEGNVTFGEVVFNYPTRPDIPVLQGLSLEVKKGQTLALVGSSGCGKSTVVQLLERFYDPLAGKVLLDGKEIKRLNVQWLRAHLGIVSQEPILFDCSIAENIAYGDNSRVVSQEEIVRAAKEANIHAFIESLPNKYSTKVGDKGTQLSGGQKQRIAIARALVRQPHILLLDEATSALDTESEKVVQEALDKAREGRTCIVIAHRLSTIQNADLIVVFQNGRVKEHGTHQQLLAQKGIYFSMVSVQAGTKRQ
METHOD NOTES: P-gp substrate evaluation experiment (MDCKII-MDR1 Transwell drug penetration test)
Type: in vitro ADME
EXPERIMENTAL CONDITIONS: dog, MDCK-MDR1, pH 7.4; read-out: ER (Efflux Ratio)
Label TRUE when efflux ratio at 2 h >= 7; otherwise FALSE.

A selection of reference data follows.
| COMPOUND | CATEGORY LABEL |
| --- | --- |
| COc1cc(N(C)CCN(C)C)c(NC(=O)/C=C/CN(C)C)cc1Nc1cc(-c2ccc3c(cnn3C)c2)ncn1 | TRUE |
| C=CC(=O)Nc1cc(Nc2cc(-c3ccc4c(cnn4C)c3)ncn2)c(OC)cc1N1CCN(C)CC1 | FALSE |
| C=CC(=O)Nc1cc(Nc2cc(-c3ccc4c(cnn4C)c3)ncn2)c(OC)cc1N1CCC(N2C[C@@H](C)O[C@@H](C)C2)CC1 | FALSE |
| C=CC(=O)Nc1cc(Nc2cc(-c3ccc4c(cnn4C)c3)ncn2)c(OC(F)F)cc1N1CCC(N(CC)CC)CC1 | TRUE |
| C=CC(=O)Nc1cc(Nc2cc(-c3ccc4c(cnn4C)c3)ncn2)c(OC)cc1N1CCN(CCO)CC1 | TRUE |

Prompt line: Determine whether measured efflux ratio at 2 h meets or exceeds 7 for C=CC(=O)Nc1cc(Nc2cc(-c3ccc4cnn(C)c4c3)ncn2)c(OC)cc1N1CCC(N2CCC(OC)C2)CC1 (stereo not drawn)
Response line: FALSE

----------
TESTED SYSTEM: P-gp (Homo sapiens, UniProt P08183)
Construct: expressed in transfected cells; host or cells: MDCKII-MDR1 (MDCKII canine kidney cells expressing MDR1)
METHOD NOTES: P-gp substrate evaluation experiment (MDCKII-MDR1 Transwell drug penetration test)
Assay type: in vitro ADME
EXPERIMENTAL CONDITIONS: dog, MDCK-MDR1, pH 7.4; read-out: ER (Efflux Ratio)
PROPERTY: efflux ratio at 2 h
Answer with the value's number alone.

For the compound C=CC(=O)Nc1cc(Nc2cc(-c3ccc4cnn(C)c4c3)ncn2)c(OC)cc1N1CCC(N2CCCCC2)CC1 [compound 179] , the measured efflux ratio at 2 h on P-gp (Homo sapiens, UniProt P08183) was 17.1

----------
Consider the following compounds and their measured efflux ratio at 2 h readings.
TESTED SYSTEM: P-gp (Homo sapiens, UniProt P08183)
Construct: expressed in transfected cells; host or cells: MDCKII-MDR1 (MDCKII canine kidney cells expressing MDR1)
METHOD NOTES: P-gp substrate evaluation experiment (MDCKII-MDR1 Transwell drug penetration test)
Type: in vitro ADME
EXPERIMENTAL CONDITIONS: dog, MDCK-MDR1, pH 7.4; read-out: ER (Efflux Ratio)

Check out these entries, answers already filled in.
| SMILES STRUCTURE | TESTED SYSTEM | VALUE |
| --- | --- | --- |
| C=CC(=O)Nc1cc(Nc2cc(-c3ccc4c(cnn4C)c3)ncn2)c(OC(F)F)cc1N1CCN(CCN(C)C)CC1 | P-gp (Homo sapiens, UniProt P08183) | 41.9 |
| C=CC(=O)Nc1cc(Nc2cc(-c3ccc4c(cnn4C)c3)ncn2)c(OC)cc1N(C)CCN(C)C(C)C | P-gp (Homo sapiens, UniProt P08183) | 2.17 |
| C=CC(=O)Nc1c(N(C)CCN(C)C)cc(OC)c(Nc2cc(-c3ccc4cnn(C)c4c3)ncn2)c1F | P-gp (Homo sapiens, UniProt P08183) | 43.9 |

compound C=CC(=O)Nc1cc(Nc2cc(-c3ccc4cnn(C)c4c3)ncn2)c(OC)cc1N1CCC(N(C)C)CC1 , efflux ratio at 2 h observed: 32.2

compound C=CC(=O)Nc1cc(Nc2cc(-c3ccc4c(cnn4C)c3)ncn2)c(OC)cc1N(C)CCN1CCN(C)CC1 , efflux ratio at 2 h observed: 6.49

compound C=CC(=O)Nc1cc(Nc2cc(-c3ccc4c(cnn4C)c3)ncn2)c(OC)cc1N1CCN(CCOC)CC1 , efflux ratio at 2 h observed: 1.54

compound C=CC(=O)Nc1cc(Nc2cc(-c3ccc4c(cnn4C)c3)ncn2)c(OC)cc1N1CCC(N2CCCCC2)CC1 , efflux ratio at 2 h observed: 11.6

compound C=CC(=O)Nc1cc(Nc2cc(-c3ccc4c(cnn4C)c3)ncn2)c(OC)cc1N1CCC(N2CCOCC2)CC1 , efflux ratio at 2 h observed: 1.67

compound C=CC(=O)Nc1cc(Nc2cc(-c3ccc4cnn(C)c4c3)ncn2)c(OC)cc1N(C)CCN(C)CC , efflux ratio at 2 h observed: 3.07

compound C=CC(=O)Nc1cc(Nc2cc(-c3ccc4cnn(C)c4c3)ncn2)c(OC(F)F)cc1N(C)CCN(C)C , efflux ratio at 2 h observed: 3.98

compound C=CC(=O)Nc1cc(Nc2cc(-c3ccc4c(cnn4C)c3)ncn2)c(OC)cc1N1CCC(N2C[C@@H](C)N(C)[C@@H](C)C2)CC1 , efflux ratio at 2 h observed: 20

compound C=CC(=O)Nc1cc(Nc2cc(-c3ccc4c(cnn4C)c3)ncn2)c(OC)cc1N1CCC(N2CCN(C3COC3)CC2)CC1 , efflux ratio at 2 h observed: 11.4

compound C=CC(=O)Nc1cc(Nc2nccc(-c3ccc4c(cnn4C)c3)n2)c(OC)cc1N1CCC(N2CCCC2)CC1 , efflux ratio at 2 h observed: 8.98

compound C=CC(=O)Nc1cc(Nc2cc(-c3ccc4c(cnn4CC)c3)ncn2)c(OC)cc1N1CCN(CCN(C)C)CC1 , efflux ratio at 2 h observed: 67.9

compound C=CC(=O)Nc1cc(Nc2cc(-c3ccc4c(cnn4C)c3)ncn2)c(OC)cc1N1CCC(C2CCN(C)CC2)CC1 , efflux ratio at 2 h observed: 6.12

----------
TESTED SYSTEM: P-gp (Homo sapiens)
Construct: expressed in transfected cells; host or cells: MDCKII-MDR1 (MDCKII canine kidney cells expressing MDR1)
METHOD NOTES: P-gp substrate evaluation experiment (MDCKII-MDR1 Transwell drug penetration test)
Type: in vitro ADME
EXPERIMENTAL CONDITIONS: dog, MDCK-MDR1, pH 7.4; read-out: ER (Efflux Ratio)
PROPERTY: efflux ratio at 2 h
Answer with the value's number alone.

| MOLECULE | PROPERTY | VALUE |
| --- | --- | --- |
| C=CC(=O)Nc1cc(Nc2cc(-c3ccc4c(cnn4C)c3)ncn2)c(OC)cc1N1CC(C)N(C)C(C)C1 (stereo not drawn) [compound 23] | efflux ratio at 2 h | 4.28 |

molecule C=CC(=O)Nc1cc(Nc2cc(-c3ccc4c(cnn4C)c3)ncn2)c(OC)cc1N1CCC(N2CC(OC)C2)CC1 [compound 206] , efflux ratio at 2 h observed: 5.87

molecule C=CC(=O)Nc1cc(Nc2cc(-c3ccc4c(cnn4C)c3)ncn2)c(OC)cc1N1CCC(N(C)C)CC1 [compound 26] , efflux ratio at 2 h observed: 5.79
